# testDescription: Pharmacokinetics in rats with ABT pretreatment (intestinal and hepatic availability)
# conditionDescription: rat, plasma, iv, 0.1 mg/kg, with ABT 100 mg/kg p.o., 15 h before dosing
measuredProperty: clearance

// fetch clearance given entry CCN(Cc1ccccn1)C(=O)Cc1c(-c2ccc(Cl)c(Cl)c2)nc2cc(C)ccn12 [YL-IPA08]
0.899 L/h/kg

====

# testDescription: Pharmacokinetics in rats with ABT pretreatment (intestinal and hepatic availability)
# conditionDescription: rat, plasma, oral, Plasma concentration, rats, p.o. 100 mg/kg ABT, p.o. 1 mg/kg YL-IPA08, 2 h
measuredProperty: concentration at 2 h (ng/mL)
State the answer as a number, implicitly in ng/mL.

Report concentration at 2 h for `CCN(Cc1ccccn1)C(=O)Cc1c(-c2ccc(Cl)c(Cl)c2)nc2cc(C)ccn12`
246

====

# testDescription: Bioavailability study in rats (i.v. and p.o.)
# Type: in vivo
# conditionDescription: male, SD, rat, plasma, po, p.o. 3 mg/kg, 12 h
measuredProperty: concentration at 12 h (ng/mL)
Lab book: enter the figure in ng/mL, no units written.

Recall and state the measured concentration at 12 h for `CCN(Cc1ccccn1)C(=O)Cc1c(-c2ccc(Cl)c(Cl)c2)nc2cc(C)ccn12` .
0.84

====

# testDescription: Bioavailability study in rats (i.v. and p.o.)
# Assay type: in vivo
# conditionDescription: male, SD, rat, plasma, po, p.o. 1 mg/kg, 6 h
measuredProperty: concentration at 6 h (ng/mL)
Reply with just the number (in ng/mL).

Give concentration at 6 h for `CCN(Cc1ccccn1)C(=O)Cc1c(-c2ccc(Cl)c(Cl)c2)nc2cc(C)ccn12`
0.63

====

# testDescription: Bioavailability study in rats (i.v. and p.o.)
# Type: in vivo
# conditionDescription: male, SD, rat, plasma, po, p.o. 1 mg/kg, 4 h
measuredProperty: concentration at 4 h
Be sure to follow the number with its unit.

Complete the entry with concentration at 4 h for CCN(Cc1ccccn1)C(=O)Cc1c(-c2ccc(Cl)c(Cl)c2)nc2cc(C)ccn12 [YL-IPA08]
1.02 ng/mL

====

# testDescription: in vitro
# conditionDescription: human, microsomes, pH 7.4
measuredProperty: microsomal CLint at 1 μM (µL/min/mg)
All answers are understood in µL/min/mg, so give the number only.

Fill in microsomal CLint at 1 μM for record CCN(Cc1ccccn1)C(=O)Cc1c(-c2ccc(Cl)c(Cl)c2)nc2cc(C)ccn12 [YL-IPA08]
200

====

# testDescription: Bioavailability study in rats (i.v. and p.o.)
# Format: in vivo
# conditionDescription: male, SD, rat, plasma, po, p.o. 10 mg/kg, 0.083 h
measuredProperty: concentration at 0.083 h (ng/mL)
Report as a plain number; the unit ng/mL is understood.

Answer with the recorded concentration at 0.083 h for the compound listed here: `CCN(Cc1ccccn1)C(=O)Cc1c(-c2ccc(Cl)c(Cl)c2)nc2cc(C)ccn12`
60.7

====

# testDescription: Transcellular transport experiment with Caco-2 cells
# conditionDescription: human, Caco-2
# Protocol: Caco-2 cell lines were cultured (ATCC, Manassas, VA, United States) as described previously ([Liu et al., 2014]). […] The cells were cultured for 20–22 days after seeding and then evaluated by measuring the transepithelial electrical resistance (TEER) (Millicell ERS®, Millipore Corporation) before experiments. […]
Entries and their Papp B→A at 120 min, 10 μM
I only need the number, in ×10⁻⁶ cm/s, no unit after it.

Recorded results for 2 molecules are shown here.
Supply Papp B→A at 120 min, 10 μM value. Item: `C[C@H]1O[C@@H](O[C@H]2[C@@H](O)C[C@H](O[C@H]3[C@@H](O)C[C@H](O[C@H]4CC[C@@]5(C)[C@H](CC[C@@H]6[C@@H]5C[C@@H](O)[C@]5(C)[C@@H](C7=CC(=O)OC7)CC[C@]65O)C4)O[C@@H]3C)O[C@@H]2C)C[C@H](O)[C@@H]1O`
2.63

Look up and report measured Papp B→A at 120 min, 10 μM for this entry: CC(C)NCC(O)COc1cccc2ccccc12 (stereo not drawn)
2.78

Next up:
Report Papp B→A at 120 min, 10 μM, nothing else, for this molecule: `CCN(Cc1ccccn1)C(=O)Cc1c(-c2ccc(Cl)c(Cl)c2)nc2cc(C)ccn12`
2.63

====

# testDescription: Pharmacokinetics in rats with ABT pretreatment (intestinal and hepatic availability)
# conditionDescription: rat, plasma, oral, Plasma concentration, rats, i.v. 50 mg/kg ABT, p.o. 1mg/kg YL-IPA08, 1 h
measuredProperty: concentration at 1 h (ng/mL)
Your answer should be a plain number; it is taken to be in ng/mL.

Provide measured concentration at 1 h value, entry: `CCN(Cc1ccccn1)C(=O)Cc1c(-c2ccc(Cl)c(Cl)c2)nc2cc(C)ccn12`
34.8

====

# testDescription: Pharmacokinetics in rats with ABT pretreatment (intestinal and hepatic availability)
# conditionDescription: rat, plasma, intravenous, Plasma concentration, rats, p.o. 100 mg/kg ABT, i.v. 0.1 mg/kg YL-IPA08, 6 h
measuredProperty: concentration at 6 h (µg/mL)
Field: numeric (µg/mL). Do not append units.

Determine its reported concentration at 6 h: CCN(Cc1ccccn1)C(=O)Cc1c(-c2ccc(Cl)c(Cl)c2)nc2cc(C)ccn12 [YL-IPA08]
0.0145

====

# testDescription: Pharmacokinetics in rats with ABT pretreatment (intestinal and hepatic availability)
# conditionDescription: rat, plasma, intravenous, 0.1 mg/kg, Plasma concentration, rats, p.o. 100 mg/kg ABT, i.v. 0.1 mg/kg YL-IPA08, 0.033 h
measuredProperty: concentration at 0.033 h (µg/mL)
A number alone suffices; assume µg/mL.

Input `CCN(Cc1ccccn1)C(=O)Cc1c(-c2ccc(Cl)c(Cl)c2)nc2cc(C)ccn12` , output reported concentration at 0.033 h.
0.465

====

# testDescription: Mass balance study in rats via oral administration
# conditionDescription: rat, feces
measuredProperty: dose excreted (%)
Express it in %; write the number only.

Report dose excreted for `CCN(Cc1ccccn1)C(=O)Cc1c(-c2ccc(Cl)c(Cl)c2)nc2cc(C)ccn12`
0.004

====

# testDescription: Pharmacokinetics in rats with ABT pretreatment (intestinal and hepatic availability)
# conditionDescription: rat, plasma, po, 1 mg/kg, MRT(0–t), rats, p.o. ABT, p.o. YL-IPA08 (1 mg/kg)
measuredProperty: MRT last (h)
The response must be a number in h with no trailing unit.

Retrieve MRT last measured for `CCN(Cc1ccccn1)C(=O)Cc1c(-c2ccc(Cl)c(Cl)c2)nc2cc(C)ccn12` and print it.
5.51

====

# testDescription: Pharmacokinetics in rats with ABT pretreatment (intestinal and hepatic availability)
# conditionDescription: rat, plasma, oral, 1 mg/kg, Plasma concentration, rats, p.o. 100 mg/kg ABT, p.o. 1 mg/kg YL-IPA08, 0.083 h
measuredProperty: concentration at 0.083 h (ng/mL)
Give a bare numeral; the unit ng/mL is implied.

Give the measured concentration at 0.083 h for `CCN(Cc1ccccn1)C(=O)Cc1c(-c2ccc(Cl)c(Cl)c2)nc2cc(C)ccn12`
546

====

# testDescription: Bioavailability study in rats (i.v. and p.o.)
# Type: in vivo
# conditionDescription: male, SD, rat, plasma, po, p.o. 10 mg/kg, 24 h
measuredProperty: concentration at 24 h
Provide the measurement as a number trailed by its unit.

# return recorded concentration at 24 h for input `CCN(Cc1ccccn1)C(=O)Cc1c(-c2ccc(Cl)c(Cl)c2)nc2cc(C)ccn12`
1.04 ng/mL

====

# testDescription: Bioavailability study in rats (i.v. and p.o.)
# Type: in vivo
# conditionDescription: male, SD, rat, plasma, po, p.o. 1 mg/kg
measuredProperty: AUC(0-inf) (ng·h/mL)
Respond numerically; units are ng·h/mL and should not be typed.

Indicate the recorded AUC(0-inf) value for this compound: `CCN(Cc1ccccn1)C(=O)Cc1c(-c2ccc(Cl)c(Cl)c2)nc2cc(C)ccn12`
13.6

====

# testDescription: Bioavailability study in rats (i.v. and p.o.)
# Type: in vivo
# conditionDescription: male, SD, rat, plasma, po, p.o. 1 mg/kg
# Experimental: Male SD rats (200-240 g) were obtained from Beijing Vital River Laboratory Animal Technology Co., Ltd. Animals were housed in a temperature- and humidity-controlled room with a 12 h light/dark cycle. […] Pharmacokinetic parameters were calculated by the noncompartmental method using WinNonlin 7.0 (Pharsight, CA). The area under the plasma concentration time curve (AUC) from time 0 to the last time point with a measurable concentration (AUC0-t) was calculated by trapezoidal method. […]
measuredProperty: half-life (h)
A number alone suffices; assume h.

For the molecule `CCN(Cc1ccccn1)C(=O)Cc1c(-c2ccc(Cl)c(Cl)c2)nc2cc(C)ccn12` , give its measured half-life value.
1.66

====

# testDescription: Pharmacokinetics in rats with ABT pretreatment (intestinal and hepatic availability)
# conditionDescription: rat, plasma, po, 1 mg/kg, with ABT 100 mg/kg p.o., 15 h before dosing
measuredProperty: Tmax
Kindly format the answer as number then unit.

Supply Tmax value. Item: `CCN(Cc1ccccn1)C(=O)Cc1c(-c2ccc(Cl)c(Cl)c2)nc2cc(C)ccn12`
1.4 h
